Biological target: human recombinant enzyme (full length top1) (Homo sapiens)
Construct: the human recombinant enzyme (full length top1)
Sequence (P11387 1-765): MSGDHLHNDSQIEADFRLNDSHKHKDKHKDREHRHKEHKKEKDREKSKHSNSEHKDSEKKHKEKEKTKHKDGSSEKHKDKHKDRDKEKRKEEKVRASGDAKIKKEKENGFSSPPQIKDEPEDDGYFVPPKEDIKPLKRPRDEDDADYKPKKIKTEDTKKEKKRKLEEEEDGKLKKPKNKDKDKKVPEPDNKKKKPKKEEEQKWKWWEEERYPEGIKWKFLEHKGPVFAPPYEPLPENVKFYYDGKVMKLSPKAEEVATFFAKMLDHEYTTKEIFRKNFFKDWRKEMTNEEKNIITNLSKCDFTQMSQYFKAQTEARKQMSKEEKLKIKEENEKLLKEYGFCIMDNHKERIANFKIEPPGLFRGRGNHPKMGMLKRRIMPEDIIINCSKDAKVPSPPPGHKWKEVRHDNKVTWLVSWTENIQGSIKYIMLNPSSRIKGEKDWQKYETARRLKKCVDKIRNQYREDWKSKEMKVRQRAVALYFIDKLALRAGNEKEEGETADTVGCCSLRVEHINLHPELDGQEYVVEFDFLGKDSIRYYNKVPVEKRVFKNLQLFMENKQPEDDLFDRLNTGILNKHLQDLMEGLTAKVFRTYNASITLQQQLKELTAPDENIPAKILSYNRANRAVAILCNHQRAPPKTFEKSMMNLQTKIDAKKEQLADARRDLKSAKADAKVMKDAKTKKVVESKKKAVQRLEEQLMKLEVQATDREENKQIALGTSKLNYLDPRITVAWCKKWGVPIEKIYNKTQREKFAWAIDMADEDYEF
Test: Topoisomerase-I-dependent DNA rupture assay, DNA damage persistence
Format: biochemical
Conditions: Time 5 min after adding 0.6M NaCl; 30 min incubation with 10 μM drug
endpoint: Persitence of DNA damage (%)
Give the quantity in %, number only.

Give Persitence of DNA damage (%) for the following molecule: CCc1c2c(nc3ccc(O)cc13)-c1cc3c(c(=O)n1C2)COC(=O)[C@]3(O)CC [SN38, 10-hydroxy-7-ethylcamptothecin] 33

Give Persitence of DNA damage (%) for the following molecule: CC[C@@]1(O)C(=O)OCc2c1cc1n(c2=O)Cc2cc3ccccc3nc2-1 [Camptothecin] 23

Give Persitence of DNA damage (%) for the following molecule: CC[C@@]1(O)C(=O)OCc2c1cc1n(c2=O)Cc2cc3c(CN(C)C)c(O)ccc3nc2-1 [Topotecan] 20

Give Persitence of DNA damage (%) for the following molecule: CC[C@@]1(O)C(=O)OCC2=C1C=C1c3nc4ccccc4cc3C3NN=C2N13 (stereo partly shown) [IDN 6132] 32

---

Please provide measured Persitence of DNA damage (%) for the entries that follow.
Molecular target: human recombinant enzyme (full length top1) (Homo sapiens, UniProt P11387)
Construct: the human recombinant enzyme (full length top1)
Assay: Topoisomerase-I-dependent DNA rupture assay, DNA damage persistence
Assay type: biochemical
Conditions: Time 10 min after adding 0.6M NaCl; 30 min incubation with 10 μM drug
Give the quantity in %, number only.

Give Persitence of DNA damage (%) for the following molecule: CC[C@@]1(O)C(=O)OCC2=C1C=C1c3nc4ccccc4cc3C3NN=C2N13 (stereo partly shown) [IDN 6132] 20

Give Persitence of DNA damage (%) for the following molecule: CC[C@@]1(O)C(=O)OCc2c1cc1n(c2=O)Cc2cc3c(CN(C)C)c(O)ccc3nc2-1 [Topotecan] 10

Give Persitence of DNA damage (%) for the following molecule: CCc1c2c(nc3ccc(O)cc13)-c1cc3c(c(=O)n1C2)COC(=O)[C@]3(O)CC [SN38, 10-hydroxy-7-ethylcamptothecin] 28

Give Persitence of DNA damage (%) for the following molecule: CC[C@@]1(O)C(=O)OCc2c1cc1n(c2=O)Cc2cc3ccccc3nc2-1 [Camptothecin] 20

---

Tested on: NCI-H460 cell line (NSCL cancer)
Experiment: Cell growth inhibition assay (cytotoxicity, cell count)
Assay type: cell-based, human
Details: NCI-H460; H460 human large cell lung tumor cells; 1 or 72 hr drug exposure; counted with Coulter counter 72 hours after exposure; read-out: NCI-H460 IC50 (μg/mL) Cell count
Description: The compounds of the invention were tested in a cytotoxicity assay on a wide spectrum of tumour cells. […] H460 Cells from human large cell lung tumor were cultured in RPMI-1640 medium containing 10% foetal calf serum. Cell sensitivity was determined by cell growth inhibition assay after 1 or 72 hr drug exposure. […]
Please provide measured IC50 for the entries that follow.
Give the quantity in µg/mL, number only.

Give IC50 for the following molecule: CC[C@@]1(O)C(=O)OCc2c1cc1n(c2=O)Cc2cc3c(CN(C)C)c(O)ccc3nc2-1 [Topotecan] 0.63

Give IC50 for the following molecule: CC[C@@]1(O)C(=O)OCc2c1cc1n(c2=O)Cc2cc3ccccc3nc2-1 [Camptothecin] 0.115

Give IC50 for the following molecule: CC[C@@]1(O)C(=O)OCC2=C1C=C1c3nc4ccccc4cc3C3NN=C2N13 (stereo partly shown) [IDN 6132] 17

Give IC50 for the following molecule: CCc1c2c(nc3ccc(O)cc13)-c1cc3c(c(=O)n1C2)COC(=O)[C@]3(O)CC [SN38, 10-hydroxy-7-ethylcamptothecin] 0.0865
